# testedSystem: HLA-A*31:01
# methodNotes: IEDB peptide-MHC binding, purified MHC/direct/fluorescence; filed as Kd, often an IC50 or EC50 that approximates it; bounds were set here for any values at or beyond the usual limits of such assays
# measurementConditions: source organism: Lake Victoria marburgvirus - Popp
pKd: −log10 of the molar value.
parameter: pKd

Query: Item `KNYPASLHK` has what recorded pKd?
Result: ≤ 4.70

====

# testedSystem: HLA-B*39:01
# methodNotes: IEDB peptide-MHC binding, purified MHC/direct/fluorescence; filed as Kd, often an IC50 or EC50 that approximates it; bounds were set here for any values at or beyond the usual limits of such assays
# measurementConditions: source organism: Camelpox virus M-96
parameter: Kd (nM)
Form entry: value (nM) — number only.

Query: Name the reported Kd value associated with the sequence `SHEQGDIAL`
Result: 92.5

====

# testedSystem: HLA-A*02:12
# methodNotes: IEDB peptide-MHC binding, purified MHC/competitive/fluorescence; filed as Kd, often an IC50 or EC50 that approximates it; bounds were set here for any values at or beyond the usual limits of such assays
# measurementConditions: source organism: Mycobacterium tuberculosis variant bovis BCG str. Pasteur 1173P2
parameter: Kd (nM)
Write the value in nM as a bare number.

Query: Need Kd of `YLAEGHACL` , thanks.
Result: 2.6

====

# testedSystem: HLA-B*40:01
# methodNotes: IEDB peptide-MHC binding, purified MHC/competitive/fluorescence; filed as Kd, often an IC50 or EC50 that approximates it; bounds were set here for any values at or beyond the usual limits of such assays
# measurementConditions: source organism: Entamoeba histolytica HM-1:IMSS
pKd: −log10 of the molar value.
parameter: pKd

Query: May I ask what pKd has been recorded for `NPAACSYMV` ?
Result: ≤ 5.30

====

# testedSystem: HLA-B*08:01
# methodNotes: IEDB peptide-MHC binding, purified MHC/competitive/radioactivity; filed as Kd, often an IC50 or EC50 that approximates it; bounds were set here for any values at or beyond the usual limits of such assays
# measurementConditions: source organism: Dengue virus 2 Jamaica/1409/1983
Parameter: pKd. Scope: all listed entries.
Hey, just a heads up that pKd is the negative log base 10 of the concentration in molar.

// below: answered sequences
- sequenceData: "LMYFHRRDL"
  testedSystem: "HLA-B*08:01"
  pKd: 7.21
- sequenceData: "MLRTRVGTK"
  testedSystem: "HLA-B*08:01"
  pKd: 5.95

Query sequence follows.
Query: GET /values?readout=pKd&item= `VQQLTKRFSL`
Result: 7.56

====

# testedSystem: HLA-A*01:01
# methodNotes: IEDB peptide-MHC binding, purified MHC/competitive/radioactivity; filed as Kd, often an IC50 or EC50 that approximates it; bounds were set here for any values at or beyond the usual limits of such assays
# measurementConditions: source organism: Triticum aestivum
parameter: pKd
Note: pKd values are expressed as the negative base-10 logarithm of concentration in M.

Query: What pKd value was documented for this sequence, `VSFQQPLQQY` ?
Result: 7.41

====

# testedSystem: HLA-B*15:03
# methodNotes: IEDB peptide-MHC binding, purified MHC/competitive/radioactivity; filed as Kd, often an IC50 or EC50 that approximates it; bounds were set here for any values at or beyond the usual limits of such assays
# measurementConditions: source organism: Vaccinia virus WR
pKd: −log10 of the molar value.
# binarize pKd: threshold 8 inclusive, high side met, low side not met

- sequenceData: "EEVNIDNSF"
  classAssignment: "not met"
- sequenceData: "LPVIFLSIF"
  classAssignment: "not met"
- sequenceData: "SQYLSRVSL"
  classAssignment: "met"
- sequenceData: "KTSSFKISK"
  classAssignment: "not met"
- sequenceData: "SSVREVFYF"
  classAssignment: "not met"
- sequenceData: "FMLMETMFF"
  classAssignment: "met"
- sequenceData: "MMSMYGKAF"
  classAssignment: "met"
- sequenceData: "WQFAIHYSF"
  classAssignment: "met"
- sequenceData: "FIKNKIHLL"
  classAssignment: "not met"
- sequenceData: "NLLCHIYSL"
  classAssignment: "not met"

Query: I'd appreciate it if you could say whether `RLYSEGLSI` has pKd at least equal to 8.
Result: not met

Query: Lookup `SSRRYRCSF`
Result: not met

Query: Repeat with `RIRRFRRPM`
Result: not met

Query: Input `FPKNDFVSF`
Result: met

====

# testedSystem: HLA-A*31:01
# methodNotes: IEDB peptide-MHC binding, purified MHC/direct/fluorescence; filed as Kd, often an IC50 or EC50 that approximates it; bounds were set here for any values at or beyond the usual limits of such assays
# measurementConditions: source organism: Cowpox virus
pKd: −log10 of the molar value.
parameter: pKd

Query: Field request: pKd | item: `ILQDRIRMY`
Result: ≤ 4.70

====

# testedSystem: HLA-A*69:01
# methodNotes: IEDB peptide-MHC binding, purified MHC/direct/fluorescence; filed as Kd, often an IC50 or EC50 that approximates it; bounds were set here for any values at or beyond the usual limits of such assays
# measurementConditions: source organism: Collimonas fungivorans
pKd: −log10 of the molar value.
parameter: pKd

Query: What value of pKd has been recorded for this entry: `AYSPFAFKK`
Result: ≤ 4.70

====

# testedSystem: HLA-B*15:42
# methodNotes: IEDB peptide-MHC binding, purified MHC/competitive/fluorescence; filed as Kd, often an IC50 or EC50 that approximates it; bounds were set here for any values at or beyond the usual limits of such assays
# measurementConditions: source organism: Zaire ebolavirus
parameter: Kd

Query: # Kd lookup, item `FTFDLTALK`
Result: ≥ 5 µM

====

# testedSystem: HLA-A*02:01
# methodNotes: IEDB peptide-MHC binding, purified MHC/competitive/radioactivity; filed as Kd, often an IC50 or EC50 that approximates it; bounds were set here for any values at or beyond the usual limits of such assays
# measurementConditions: source organism: Hepatitis C virus (isolate 1)
parameter: Kd

Query: Report Kd for `AAGLQDCT` tested on HLA-A*02:01.
Result: ≥ 50 µM

====

# testedSystem: HLA-B*57:01
# methodNotes: IEDB peptide-MHC binding, purified MHC/direct/fluorescence; filed as Kd, often an IC50 or EC50 that approximates it; bounds were set here for any values at or beyond the usual limits of such assays
# measurementConditions: source organism: Reston ebolavirus - Reston
Kd values, listed per item

- sequenceData: "KHDFIDNPL"
  testedSystem: "HLA-B*57:01"
  parameter: "Kd"
  valueReported: "≥ 20 µM"

Query sequence follows.
Query: Record lookup: for HLA-B*57:01, what Kd belongs to `FHRKKTDAL` ?
Result: ≥ 20 µM

====

# testedSystem: HLA-A*31:01
# methodNotes: IEDB peptide-MHC binding, purified MHC/direct/fluorescence; filed as Kd, often an IC50 or EC50 that approximates it; bounds were set here for any values at or beyond the usual limits of such assays
# measurementConditions: source organism: Burkholderia mallei
parameter: Kd

Query: What Kd appears in the records for this sequence with HLA-A*31:01? `EPFSRRHPL`
Result: ≥ 20 µM

====

# testedSystem: HLA-A*31:01
# methodNotes: IEDB peptide-MHC binding, purified MHC/direct/fluorescence; filed as Kd, often an IC50 or EC50 that approximates it; bounds were set here for any values at or beyond the usual limits of such assays
# measurementConditions: source organism: SARS-CoV1
parameter: pKd
As a rule, pKd stands for the negative log10 of the concentration, concentration in M.

Query: What does the record list as pKd for `VLWAHGFEL` ?
Result: 6.52

====

# testedSystem: HLA-B*40:02
# methodNotes: IEDB peptide-MHC binding, purified MHC/competitive/radioactivity; filed as Kd, often an IC50 or EC50 that approximates it; bounds were set here for any values at or beyond the usual limits of such assays
# measurementConditions: source organism: Mammarenavirus choriomeningitidis
parameter: Kd (nM)
The answer is to be given in nM; state only the numeric part.

Query: Query for HLA-B*40:02: what Kd does the record show for `MDLLLFSTS` ?
Result: 265

====

# testedSystem: HLA-A*69:01
# methodNotes: IEDB peptide-MHC binding, purified MHC/direct/fluorescence; filed as Kd, often an IC50 or EC50 that approximates it; bounds were set here for any values at or beyond the usual limits of such assays
# measurementConditions: source organism: Edwardsiella tarda
parameter: Kd

Query: Recorded Kd of `AFGLFWLVW` , please.
Result: ≥ 20 µM

====

# testedSystem: HLA-B*44:02
# methodNotes: IEDB peptide-MHC binding, purified MHC/competitive/radioactivity; filed as Kd, often an IC50 or EC50 that approximates it; bounds were set here for any values at or beyond the usual limits of such assays
# measurementConditions: source organism: Hepatitis C virus (isolate 1)
parameter: Kd

Query: Lookup: Kd / HLA-B*44:02 / `KLVALGINAV`
Result: ≥ 70.2 µM

====

# testedSystem: HLA-B*39:01
# methodNotes: IEDB peptide-MHC binding, purified MHC/direct/fluorescence; filed as Kd, often an IC50 or EC50 that approximates it; bounds were set here for any values at or beyond the usual limits of such assays
# measurementConditions: source organism: Reston ebolavirus - Reston
parameter: pKd
Expect pKd as a plain number equal to -log10 of the molar concentration.

Query: Sample `KHDFIDNPL` — what was its pKd?
Result: 5.31

Measured values drawn from the Immune Epitope Database (IEDB) for this set.
